- Tested on: HSkMC
- ASSAY NOTES: cytotoxicity call (relative viability < 0.9)
- CONDITION DETAILS: 10 µM
About 1,500 (3.8%) of roughly 39,000 compounds were called active. For the sample, actives were picked, then their nearest neighbours and some compounds at random.
Answer with one of the outcomes active, inactive

// outcome(item) with item = C[C@@H]1CN([C@@H](C)CO)C(=O)Cc2cc(NS(=O)(=O)c3ccc(Cl)cc3)ccc2O[C@@H]1CN(C)Cc1ccc(Cl)c(Cl)c1 active

// outcome(item) with item = C[C@@H]1CN([C@@H](C)CO)C(=O)Cc2cc(NS(=O)(=O)c3ccc(Cl)cc3)ccc2O[C@H]1CN(C)Cc1ccc(Cl)c(Cl)c1 active

// outcome(item) with item = O=C(NO)c1cn(CC(=O)N2CCC3(CC2)C(=O)NCN3c2ccccc2)nn1 inactive

// outcome(item) with item = O=C(N[C@H]1C=C[C@H](CC(=O)N2CCOCC2)O[C@H]1CO)c1ccccn1 inactive

// outcome(item) with item = C[C@@H]1CN([C@H](C)CO)C(=O)Cc2cc(NS(=O)(=O)c3ccc(Cl)cc3)ccc2O[C@@H]1CN(C)Cc1ccc(Cl)c(Cl)c1 active

// outcome(item) with item = C[C@H]1CN([C@@H](C)CO)C(=O)Cc2cc(NS(=O)(=O)c3ccc(Cl)cc3)ccc2O[C@@H]1CN(C)Cc1ccc(Cl)c(Cl)c1 inactive

// outcome(item) with item = O=C(NO)c1cn(-c2cccc(C(=O)N3CCC4(CC3)C(=O)NCN4c3ccccc3)c2)nn1 active

---

- Test system: HSkMC
- ASSAY NOTES: cytotoxicity call (relative viability < 0.9)
- CONDITION DETAILS: 10 µM
About 1,500 (3.8%) of roughly 39,000 compounds were called active. This excerpt belongs to a sample that is enriched for actives.
Answer with one of the outcomes 1.0 (active), 0.0 (inactive)

// outcome(item) with item = COc1ccc(C#Cc2ccc3c(c2)[C@]2(C(=O)N3)[C@H](C(=O)N3CCCCCCC3)[C@H]3C(=O)O[C@H](c4ccccc4)[C@H](c4ccccc4)N3[C@@H]2c2ccc(O)cc2)cc1 0.0

// outcome(item) with item = C[C@@H]1CN([C@H](C)CO)C(=O)Cc2cc(NC(=O)Nc3ccc(C(F)(F)F)cc3)ccc2O[C@H]1CN(C)Cc1ccc(-c2ccccc2)cc1 1.0

// outcome(item) with item = C[C@@H]1CN([C@@H](C)CO)C(=O)Cc2cc(NC(=O)Nc3ccccc3)ccc2O[C@H]1CN(C)Cc1ccc(-c2ccccc2)cc1 0.0

// outcome(item) with item = C[C@@H]1CN([C@H](C)CO)C(=O)Cc2cc(NC(=O)Nc3ccc(C(F)(F)F)cc3)ccc2O[C@@H]1CN(C)Cc1ccc(-c2ccccc2)cc1 1.0

// outcome(item) with item = C[C@@H]1CN([C@H](C)CO)C(=O)Cc2cc(NC(=O)Nc3ccccc3)ccc2O[C@H]1CN(C)Cc1ccc(-c2ccccc2)cc1 0.0

// outcome(item) with item = COC(=O)c1c(CC[C@@H](CO)NC(=O)N[C@@H](Cc2ccccc2)Cn2cc(-c3ccccn3)nn2)oc(C(=O)N2CCOCC2)c1C(=O)OC 0.0

---

- Test system: HSkMC
- ASSAY NOTES: cytotoxicity call (relative viability < 0.9)
- CONDITION DETAILS: 10 µM
Screen size: about 39,000 compounds; about 1,500 (3.8%) were called active. This excerpt belongs to a sample that is enriched for actives.
Answer with one of the outcomes 1 for active, -1 for inactive

// outcome(item) with item = C[C@@H]1CN([C@@H](C)CO)C(=O)c2cc(NS(=O)(=O)c3ccccc3)ccc2O[C@H]1CN(C)Cc1ccc(-c2ccccc2)cc1 -1

// outcome(item) with item = C[C@@H]1CN([C@@H](C)CO)C(=O)c2cc(NS(=O)(=O)c3ccccc3)ccc2O[C@@H]1CN(C)Cc1ccc(-c2ccccc2)cc1 1

// outcome(item) with item = C[C@@H]1CN([C@H](C)CO)C(=O)Cc2cc(NC(=O)Cn3cnnn3)ccc2O[C@H]1CN(C)S(=O)(=O)c1cccs1 -1

// outcome(item) with item = C[C@H]1CN([C@@H](C)CO)C(=O)c2cc(NS(=O)(=O)c3ccccc3)ccc2O[C@H]1CN(C)Cc1ccc(-c2ccccc2)cc1 -1

// outcome(item) with item = C[C@@H]1CN([C@H](C)CO)C(=O)c2cc(NS(=O)(=O)c3cccs3)ccc2O[C@@H]1CN(C)Cc1ccc(-c2ccccc2)cc1 1

// outcome(item) with item = C[C@H](CO)N1C[C@H](C)[C@H](CN(C)Cc2ccc(-c3ccccc3)cc2)Oc2ccc(NS(=O)(=O)c3cccs3)cc2C1=O -1

// outcome(item) with item = Cc1ccc(S(=O)(=O)Nc2ccc3c(c2)C(=O)N([C@H](C)CO)C[C@H](C)[C@H](CN(C)Cc2ccc(-c4ccccc4)cc2)O3)cc1 1

// outcome(item) with item = Cc1ccc(S(=O)(=O)Nc2ccc3c(c2)C(=O)N([C@H](C)CO)C[C@@H](C)[C@H](CN(C)Cc2ccc(-c4ccccc4)cc2)O3)cc1 -1

// outcome(item) with item = Cc1cc(C)c(C)c(C(=O)O)c1C -1

// outcome(item) with item = Cc1ccc(S(=O)(=O)Nc2ccc3c(c2)C(=O)N([C@@H](C)CO)C[C@H](C)[C@@H](CN(C)Cc2ccc(-c4ccccc4)cc2)O3)cc1 -1

// outcome(item) with item = Cc1ccc(S(=O)(=O)Nc2ccc3c(c2)C(=O)N([C@H](C)CO)C[C@@H](C)[C@@H](CN(C)Cc2ccc(-c4ccccc4)cc2)O3)cc1 1

// outcome(item) with item = C[C@@H]1CCCCO[C@H](CN(C)Cc2ccc(C(=O)O)cc2)[C@H](C)CN([C@H](C)CO)C(=O)c2cc(NC(=O)Nc3ccc(C(F)(F)F)cc3)ccc2O1 -1

// outcome(item) with item = COc1ccc(CNC(=O)C[C@@H]2C[C@@H]3c4cc(NS(=O)(=O)c5ccc(F)cc5)ccc4O[C@@H]3[C@H](CO)O2)cc1 -1

// outcome(item) with item = O=C(NCCN1CCOCC1)[C@@H]1c2ccccc2C(=O)N(Cc2cc(C(F)(F)F)cc(C(F)(F)F)c2)[C@H]1c1ccc(CO)cc1 -1

// outcome(item) with item = COCC#Cc1cnc2c(c1)C(=O)N([C@@H](C)CO)C[C@@H](C)[C@H](CN(C)C(C)=O)O2 -1

---

- Test system: HSkMC
- ASSAY NOTES: cytotoxicity call (relative viability < 0.9)
- CONDITION DETAILS: 10 µM
Out of some 39,000 compounds screened, about 1,500 (3.8%) were called active. This is one part of a sample in which actives are shown more often than they occur.
MEASURE NAME: cytotoxicity call

Consider the reported cytotoxicity call for these molecules:
COc1ccc(S(=O)(=O)Nc2ccc3c(c2)CC(=O)N([C@@H](C)CO)C[C@@H](C)[C@H](CN(C)Cc2ccc(Oc4ccccc4)cc2)O3)cc1 ... inactive
C[C@H]1CCCCO[C@@H](CN(C)Cc2ccc(C(F)(F)F)cc2)[C@@H](C)CN([C@@H](C)CO)C(=O)c2cc(NC(=O)Nc3ccccc3)ccc2O1 ... active
O=C(Nc1ccc(-c2nc3ccc(NC(=O)c4ccc(Cl)cc4)cc3[nH]2)cc1)c1ccc(Cl)cc1 ... active
COc1ccc(S(=O)(=O)Nc2ccc3c(c2)CC(=O)N([C@H](C)CO)C[C@H](C)[C@H](CN(C)Cc2ccc(Oc4ccccc4)cc2)O3)cc1 ... inactive
O=C(Nc1ccc(-c2nc3ccc(NC(=O)c4ccccc4[N+](=O)[O-])cc3[nH]2)cc1)c1ccccc1[N+](=O)[O-] ... inactive

Reported cytotoxicity call for C[C@@H]1CCCCO[C@H](CN(C)Cc2ccc(C(F)(F)F)cc2)[C@H](C)CN([C@@H](C)CO)C(=O)c2cc(NC(=O)Nc3ccccc3)ccc2O1 : what is it? inactive

Reported cytotoxicity call for C[C@H](CO)N1C[C@H](C)[C@@H](CN(C)C(=O)Nc2ccccc2F)Oc2ncc(Br)cc2C1=O : what is it? inactive

---

- Test system: HSkMC (human skeletal muscle cells)
- ASSAY NOTES: cytotoxicity call (relative viability < 0.9)
- CONDITION DETAILS: 10 µM
Screen size: about 39,000 compounds; about 1,500 (3.8%) were called active. Shown is part of a subset that was picked to be rich in actives.
MEASURE NAME: cytotoxicity call

C[C@@H]1CN([C@H](C)CO)C(=O)CCCn2cc(nn2)CO[C@@H]1CN(C)S(=O)(=O)c1ccc2ccccc2c1 ... inactive
C[C@@H]1CC[C@@]2(OC1)O[C@H]1C[C@H]3[C@H]4C[C@@H](O)[C@H]5C[C@@H](O[C@@H]6O[C@H](CO)[C@H](O[C@@H]7O[C@H](CO)[C@@H](O)[C@H](O[C@@H]8OC[C@@H](O)[C@H](O)[C@H]8O)[C@H]7O[C@@H]7O[C@H](CO)[C@@H](O[C@@H]8O[C@H](CO)[C@@H](O)[C@H](O)[C@H]8O)[C@H](O)[C@H]7O)[C@H](O)[C@H]6O)CC[C@]5(C)[C@@H]4CC[C@]3(C)[C@H]1[C@@H]2C ... active
CC1CCC2(OC1)OC1CC3C4CCC5CC(O)CCC5(C)C4CCC3(C)C1C2C (centres undefined) ... inactive
C[C@@H]1CC[C@@]2(OC1)O[C@H]1C[C@H]3[C@H]4CC=C5C[C@@H](O[C@@H]6O[C@H](CO)[C@@H](O[C@@H]7O[C@@H](C)[C@H](O)[C@@H](O)[C@H]7O[C@@H]7O[C@@H](C)[C@H](O)[C@@H](O)[C@H]7O)[C@H](O)[C@H]6O)CC[C@]5(C)[C@@H]4CC[C@]3(C)[C@H]1[C@@H]2C ... active
